Tested on: expanded OPCs
Assay: cells
Details: alamarBlue viability of expanded OPCs, compound at 1 µM, relative to DMSO control
Source text: Having established a consistent assay for measuring OL differentiation in vitro, the next step was to utilize this assay to assess the ability of a wide array of compounds to promote OL differentiation. Prior to library screening, we first established the maximum non-toxic dose of each compound in the library. […] Three days later, we assessed viability of the treated cells by measuring AlamarBlue fluorescence, a measure of cell viability (see “Methods” section). […]
attributeMeasured: 1 µM (% DMSO)
// note: answer is a bare numeric in % DMSO

Name the reported 1 µM (% DMSO) value associated with the compound Oc1c(Cl)cc(Cl)c2cccnc12
10.2

Give its 1 µM (% DMSO) value. Item: CC(C)n1c(/C=C/C(O)CC(O)CC(=O)O)c(-c2ccc(F)cc2)c2ccccc21 (stereo not drawn)
53.3

What does the record list as 1 µM (% DMSO) for Cc1ccc(-c2cc(C(F)(F)F)nn2-c2ccc(S(N)(=O)=O)cc2)cc1 ?
89.6

Please report the recorded 1 µM (% DMSO) for COc1cc2nc(N3CCN(C(=O)C4COc5ccccc5O4)CC3)nc(N)c2cc1OC (stereo not drawn) .
157.6

// query 1 µM (% DMSO) value for entry O=C1CC[C@@]2(O)[C@H]3Cc4ccc(O)c5c4[C@@]2(CCN3CC2CC2)[C@H]1O5 [Naltrexone]
101.6

So what's the measured 1 µM (% DMSO) for this one? CCOC(=O)C1=C(C)NC(C)=C(C(=O)OC)C1c1cccc(Cl)c1Cl (stereo not drawn)
62.8

// returns reported 1 µM (% DMSO) for input CC[C@H](C)C(=O)O[C@H]1C[C@@H](C)C=C2C=C[C@H](C)[C@H](CC[C@@H]3C[C@@H](O)CC(=O)O3)[C@H]21
99.7

Name the recorded 1 µM (% DMSO) for CC(=O)Nc1nnc(S(N)(=O)=O)s1 [Acetazolamide] .
90.6

Requested read-out: 1 µM (% DMSO). Entry: CS(=O)(=O)OCCCCOS(C)(=O)=O
91.8

So what's the measured 1 µM (% DMSO) for this one? CCOC(=O)CCC(=O)O[C@H]1[C@H](O[C@@H]2[C@@H](C)[C@H](O[C@H]3C[C@@](C)(OC)[C@@H](O)[C@H](C)O3)[C@@H](C)C(=O)O[C@H](CC)[C@@](C)(O)[C@H](O)[C@@H](C)C(=O)[C@H](C)C[C@@]2(C)O)O[C@H](C)C[C@@H]1N(C)C [Erythromycin Ethylsuccinate]
87.4

Reported 1 µM (% DMSO) for O=C(O)c1cc2ccccc2c(Cc2c(O)c(C(=O)O)cc3ccccc23)c1O.OCCOCCN1CCN(C(c2ccccc2)c2ccc(Cl)cc2)CC1 [Hydroxyzine pamoate salt] : what is it?
190.1

Look up 1 µM (% DMSO) for this compound: CCCCNc1cc(C(=O)O)cc(S(N)(=O)=O)c1Oc1ccccc1 [Bumetanide]
97.8

Which 1 µM (% DMSO) is listed for CC12CC3CC(C)(C1)CC(N)(C3)C2 [Memantine] ?
84.1

I would be grateful if you could share the reported 1 µM (% DMSO) for COc1cc(NC(C)CCCN)c2ncccc2c1 (stereo not drawn) .
66.2

What value of 1 µM (% DMSO) has been recorded for this entry: C[C@]12C=CC(=O)C=C1CC[C@@H]1[C@@H]2C(=O)C[C@@]2(C)[C@H]1CC[C@]2(O)C(=O)CO
89.0

// returns reported 1 µM (% DMSO) for input CCCC(C)(COC(N)=O)COC(=O)NC(C)C (stereo not drawn)
90.4

State the recorded 1 µM (% DMSO) for this entry: CO[C@H]1/C=C/O[C@@]2(C)Oc3c(C)c(O)c4c(c3C2=O)C2=NC3(CCN(CC(C)C)CC3)NC2=C(NC(=O)/C(C)=C\C=C\[C@H](C)[C@H](O)[C@@H](C)[C@@H](O)[C@@H](C)[C@H](OC(C)=O)[C@@H]1C)C4=O
77.1

Would you mind telling me what 1 µM (% DMSO) value was observed for COC(=O)Nc1nc2ccc(C(=O)c3ccccc3)cc2[nH]1 ?
53.6

Which value of 1 µM (% DMSO) has been reported for COc1ccc(OC)c(C(O)CNC(=O)CN)c1 (stereo not drawn) in the records?
88.9

// 1 µM (% DMSO) lookup, key: CCc1cccc2c3c([nH]c12)C(CC)(CC(=O)O)OCC3 (stereo not drawn)
88.3

Given the entry Cc1onc(-c2ccccc2)c1C(=O)N[C@@H]1C(=O)N2[C@@H]1SC(C)(C)[C@@H]2C(=O)O , report its measured 1 µM (% DMSO).
96.8

Reported 1 µM (% DMSO) for CC(=O)OCC[N+](C)(C)C : what is it?
92.6

Which 1 µM (% DMSO) value belongs to NNC(=O)c1ccncc1 ?
98.4

Fill in: 1 µM (% DMSO) of Clc1ccc(COC(Cn2ccnc2)c2ccc(Cl)cc2Cl)c(Cl)c1 (stereo not drawn) is ___
108.6

I am curious: what 1 µM (% DMSO) value has been reported for CN[C@H]1CC[C@@H](c2ccc(Cl)c(Cl)c2)c2ccccc21 ?
20.4

Reported 1 µM (% DMSO) for CC1=C(/C=C/C(C)=C/C=C/C(C)=C\C(=O)O)C(C)(C)CCC1 : what is it?
112.6

Which 1 µM (% DMSO) reading was recorded for the compound CN(C)C(=O)Oc1ccc[n+](C)c1 [Pyridostigmine Bromide] ?
86.7

Please look up its 1 µM (% DMSO): CC1=C(/C=C/C(C)=C/C=C/C(C)=C/C(=O)O)C(C)(C)CCC1
188.5

Entry under review: Cc1onc(-c2c(Cl)cccc2Cl)c1C(=O)N[C@@H]1C(=O)N2[C@@H]1SC(C)(C)[C@@H]2C(=O)O . Reported 1 µM (% DMSO)?
91.4

Can you look up the measured 1 µM (% DMSO) of CN(C)CCCN1c2ccccc2CCc2ccc(Cl)cc21 for me?
37.7

Item CN1[C@@H]2CC[C@H]1C[C@@H](OC(c1ccccc1)c1ccccc1)C2 has what recorded 1 µM (% DMSO)?
133.9

Recorded 1 µM (% DMSO) of CC(C)C(=O)Nc1ccc([N+](=O)[O-])c(C(F)(F)F)c1 [Flutamide] , please.
91.4

For the compound CN/C(=N/CCSCc1nc[nH]c1C)NC#N , what 1 µM (% DMSO) is on record?
89.2
